- study_system: human TLR8 (Homo sapiens, UniProt Q9NR97)
- Sequence (Q9NR97 27-1041): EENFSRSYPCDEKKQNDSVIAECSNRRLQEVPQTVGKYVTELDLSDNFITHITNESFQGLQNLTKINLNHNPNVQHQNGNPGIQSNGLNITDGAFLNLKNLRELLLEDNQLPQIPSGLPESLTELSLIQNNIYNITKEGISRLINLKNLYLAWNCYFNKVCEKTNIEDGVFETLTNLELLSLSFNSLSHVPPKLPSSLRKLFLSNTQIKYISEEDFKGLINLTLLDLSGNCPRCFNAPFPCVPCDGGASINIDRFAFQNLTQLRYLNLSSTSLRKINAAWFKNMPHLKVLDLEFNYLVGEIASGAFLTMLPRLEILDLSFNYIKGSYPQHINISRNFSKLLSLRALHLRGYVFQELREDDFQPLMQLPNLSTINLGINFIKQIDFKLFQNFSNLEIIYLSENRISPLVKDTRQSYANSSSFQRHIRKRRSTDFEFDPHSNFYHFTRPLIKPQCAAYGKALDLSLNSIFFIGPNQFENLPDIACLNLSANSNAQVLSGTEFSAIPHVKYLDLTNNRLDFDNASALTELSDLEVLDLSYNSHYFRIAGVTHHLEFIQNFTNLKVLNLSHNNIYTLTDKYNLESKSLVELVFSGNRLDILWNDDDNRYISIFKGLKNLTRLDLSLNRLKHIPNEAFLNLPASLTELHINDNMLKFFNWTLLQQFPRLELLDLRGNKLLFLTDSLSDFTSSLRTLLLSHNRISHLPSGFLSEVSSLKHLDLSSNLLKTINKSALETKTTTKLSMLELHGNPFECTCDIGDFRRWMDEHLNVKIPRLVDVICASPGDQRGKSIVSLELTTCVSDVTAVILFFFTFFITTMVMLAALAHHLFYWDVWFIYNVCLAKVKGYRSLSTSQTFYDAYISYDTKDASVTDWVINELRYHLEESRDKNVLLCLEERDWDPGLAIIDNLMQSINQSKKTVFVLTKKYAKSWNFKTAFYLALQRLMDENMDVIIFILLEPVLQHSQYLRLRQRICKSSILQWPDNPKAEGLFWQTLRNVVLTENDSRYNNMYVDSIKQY
- assay_info: TLR8 inhibition reporter assay (HEK-Blue cells, SEAP reporter)
- measurement_context: HEK-Blue cells overexpressing human TLR8; stimulated with R848 15.9 μM; 22 hour incubation; SEAP readout
pIC50: −log10 of the molar value.
reported_property: pIC50

Examples from the recorded data:
COc1ccc(-c2cn3cc(C4CCN(C5CCN(CC(C)C)CC5)CC4)cc(C)c3n2)cc1OC
< 4.30
COc1ccc(-c2cn3cc(C4CC5CCC(C4)N5C4CCN(C5CC5)CC4)cc(C)c3n2)cc1OC (single isomer, unassigned) [Example 25]
4.70
CS(=O)(=O)c1ccc(-c2cn3cc(C4CCN(C5CC6CCC(C5)N6C5CCC5)CC4)cc(F)c3n2)cc1 (single isomer, unassigned) [Example 117]
4.70
CC(C)N1CCC(N2CCC(c3ccc4nc(-c5ccc(S(C)(=O)=O)cc5)cn4c3F)CC2)CC1
4.64
CS(=O)(=O)c1ccc(-c2cn3cc(C4CCN(C5CCN(C6CCC6)CC5)CC4)cc(F)c3n2)cc1
< 4.30
COc1ccc(-c2cn3c(n2)CCC(C2CCN(C4CCN(C(=O)C(C)C)CC4)CC2)C3)cc1OC (single isomer, unassigned) [Example 40]
< 4.30

Consider the record given below.
Recorded pIC50 for CC(C)N1CCCC(N2CCC(c3cc(F)c4nc(-c5ccc(S(C)(=O)=O)cc5)cn4c3)CC2)CC1 (single isomer, unassigned) [Example 72] , please?
< 4.30
